ASSAY OVERVIEW: recombinant UMI read abundance after kanamycin selection (control-corrected) (log10(CPM+1)); higher = more efficient recombination; extreme values may be limits of the assay; sequences stand for … in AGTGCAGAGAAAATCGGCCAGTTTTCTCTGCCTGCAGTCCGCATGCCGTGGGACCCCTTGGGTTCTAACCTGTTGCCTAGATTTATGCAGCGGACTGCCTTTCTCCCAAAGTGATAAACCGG…AGGTTGGTTTCACT; site = the 11-nt donor;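 further: IS621 bridge recombinase in Escherichia coli cells against a fixed T5 target plasmid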
Let's look at some sequences and their measured recombinant UMI read abundance (log10).
Respond numerically, and do not add a unit to the figure.

Solved entries:
| RESIDUE SEQUENCE | RESULT VALUE |
| --- | --- |
| TCCAACTCATGGACCGGTTTTCCCGGTAATCCGTATTTGCC (site TCCAAGTCTGG) | 0 |
| CTTCTCGCATGGACCGGTTTTCCCGGTAATCCGTATTTGCG (site CTTCTCGCTCG) | 0.0091 |
| CTGCTACCATGGACCGGTTTTCCCGGTAATCCGTATTTGCT (site CTGCTACCTAA) | 0.0092 |

Q. Report recombinant UMI read abundance (log10), nothing else, for this sequence: TGTACACCATGGACCGGTTTTCCCGGTAATCCGTATTTGAC (site TCTACACCTGT)
A. 0

Q. Report recombinant UMI read abundance (log10), nothing else, for this sequence: GCCTCGCCATGGACCGGTTTTCCCGGTAATCCGTATTTGTA (site GCCACGCCTTA)
A. 0.00387

Q. Report recombinant UMI read abundance (log10), nothing else, for this sequence: TAGGAATCATGGACCGGTTTTCCCGGTAATCCGTATTTGCG (site AAGGAATCTCG)
A. 2.07

Q. Report recombinant UMI read abundance (log10), nothing else, for this sequence: ACGCGTCCATGGACCGGTTTTCCCGGTAATCCGTATTTGTG (site ACGCGTCCTCA)
A. 0.257

Q. Report recombinant UMI read abundance (log10), nothing else, for this sequence: TCAGTGCCATGGACCGGTTTTCCCGGTAATCCGTATTTGCG (site TCAGTGCCTCG)
A. 0.0165

Q. Report recombinant UMI read abundance (log10), nothing else, for this sequence: AGGAAGCCATGGACCGGTTTTCCCGGTAATCCGTATTTGCC (site AGGAAGACTTG)
A. 0
